Biological target: recombinant SARS-CoV-2 M^pro (Severe acute respiratory syndrome coronavirus 2 (2019-nCoV) (SARS-CoV-2), UniProt P0DTD1)
Experiment: Inhibition of SARS-CoV-2 M^pro enzyme activity (fluorescent substrate assay)
Type: biochemical
Details: inhibition of SARS-CoV-2 M^pro enzyme activity; values in nM; read-out: IC50
Reported IC50 values for the following compounds.
The reply should contain only the number, in nM.

# example entries with known answers
>>> df
                                   compound  units_symbol  measured_result
0  O=C(NCc1ccccn1)C(=O)[C@@H](Cc1ccccc1)NC(=O)[C@H]1Cc2ccccc2CN1C(=O)C1CCC(F)(F)CC1 [Compound 267]            nM             11.2
1  O=C(CN1C(=O)CN(c2ccc(F)cc2)C1=O)N[C@H](Cc1ccccc1)C(=O)C(=O)NCc1nccs1 [Compound 525]            nM             84.5
2  O=C(Cc1cc(OC(F)(F)F)ccc1F)NC1(C(=O)N[C@H](Cc2ccccc2)C(=O)C(=O)NCc2ccccn2)CC1 [Compound 164]            nM             13.2
3  O=C(NCc1ccccn1)C(=O)[C@@H](Cc1ccccc1)NC(=O)C1(NC(=O)C2CC(F)(F)C2)CCC1 [Compound 204]            nM             36.7
4  C[C@@H](OCc1cc(F)cc(Cl)c1)C(=O)N[C@H](Cc1ccccc1)C(=O)C(=O)NCc1ccccn1 [Compound 15]            nM              9.8
5  O=C(CNC(=O)C1CCC(F)(F)CC1)N[C@H](Cc1ccccc1)C(=O)C(=O)NCc1ccccn1 [Compound 155]            nM             14.1
6  C[C@@H](NC(=O)C1CCC(C(F)(F)F)CC1)C(=O)N[C@H](Cc1ccccc1)C(=O)C(=O)NCc1ccccn1 (some centres unmarked) [Compound 147]            nM               13
7  COc1ccc(CCCC(=O)N[C@H](C)C(=O)N[C@H](Cc2ccccc2)C(=O)C(=O)NCc2ccccn2)cc1 [Compound 63]            nM             19.6

Q. Entry under review: CC(C)(C(=O)N[C@H](Cc1ccccc1)C(=O)C(=O)NCc1ccccn1)C(=O)N1CCC(C(F)(F)F)CC1 [Compound 325] . Reported IC50?
A. 177

Q. Can you look up the measured IC50 of O=C(NCc1ccccn1)C(=O)[C@@H](Cc1ccccc1)NC(=O)C1(NC(=O)C23CC4(F)CC(F)(CC(F)(C4)C2)C3)CCC1 [Compound 203] for me?
A. 19.6

Q. Sample O=C(CC12CC3CC(CC(C3)C1)C2)NC1(C(=O)N[C@H](Cc2ccccc2)C(=O)C(=O)NCc2ccccn2)CCC1 [Compound 196] — what was its IC50?
A. 14.5

Q. What IC50 value was documented for this compound, O=C(NCc1nccs1)C(=O)[C@@H](Cc1ccccc1)NC(=O)[C@@H](CO)NC(=O)C1CCCC(F)(F)C1 (some centres unmarked) [Compound 567] ?
A. 63.6

Q. Could you share which IC50 value was measured for N#Cc1cc(F)cc(-c2nc(CC(=O)N[C@H](Cc3ccccc3)C(=O)C(=O)NCc3nccs3)cs2)c1 [Compound 514] ?
A. 56.8

Q. Entry C[C@@H](NC(=O)C1CCC(F)(F)CC1)C(=O)N[C@H](Cc1ccco1)C(=O)C(=O)NCc1nccs1 [Compound 367] : reported IC50 = ?
A. 105
